# Test system: CAKI-1
# Assay comment: Cytotoxicity against human Caki1 cells
# Type: functional
Listed here: items and their measured LC50.
Number in µM, nothing else.

Look over these answered cases.
INSERT INTO results (compound, assayed_target, recorded_endpoint, reported_result) VALUES
  ('CC1=C([Se]CC(OC(=O)[C@@H](CSSC(C)(C)C)NC(=O)C(C)(C)C)C(=O)NCCCCCC(=O)OCc2ccccc2)C(=O)c2ccccc2C1=O (some centres undefined)', 'CAKI-1', 'LC50', 9.33),
  ('CC1=C(SCCC(=O)OC(C[Se]C2=C(C)C(=O)c3ccccc3C2=O)C(=O)NCCCCCC(=O)OCc2ccccc2)C(=O)c2ccccc2C1=O (centres undefined)', 'CAKI-1', 'LC50', 51.3),
  ('CC1=C([Se]CC(OC(=O)[C@@H](CO)NC(=O)OC(C)(C)C)C(=O)NCCCCCC(=O)OCc2ccccc2)C(=O)c2ccccc2C1=O (some centres undefined)', 'CAKI-1', 'LC50', 6.03);

Given CC1=C([Se]CC(OC(=O)[C@@H](CO)NC(=O)OC(C)(C)C)C(=O)NC(C)(C)C)C(=O)c2ccccc2C1=O (some centres undefined) , state its recorded LC50. 6.61
